Just for reference, patent US7323479B2 is where these values come from.

# protocol_description: Pharmacokinetics of Actimid in relapsed/refractory multiple myeloma patients
# Type: in vivo, human
# test_context: human, in vivo, po, t½
property_measured: half-life (h)
# value in h; strip the unit string

Entry under test: Nc1cccc2c1C(=O)N(C1CCC(=O)NC1=O)C2=O (stereo not shown) . Its half-life was 6.2

---

# protocol_description: Pharmacokinetics of Actimid in relapsed/refractory multiple myeloma patients
# Format: in vivo, human
# test_context: human, in vivo, median Tmax
# Protocol: 4-(Amino)-2-(2,6-dioxo(3-piperidyl))-isoindoline-1,3-dione (Actimid™) was administered to patients with relapsed/refractory multiple myeloma. The study was conducted in compliance with Good Clinical Practices. Patients were at least 18 years old, had been diagnosed with multiple myeloma (with paraprotein in serum and/or urine), and were considered refractory to treatment after at least two cycles of treatment, or have relapsed after two cycles of treatment. […]
property_measured: Tmax

Entry under test: Nc1cccc2c1C(=O)N(C1CCC(=O)NC1=O)C2=O (stereo not shown) [Actimid] . Its Tmax was 2.5 to 2.8 h

---

# protocol_description: Pharmacokinetics of Actimid in relapsed/refractory multiple myeloma patients
# Assay type: in vivo, human
# test_context: human, in vivo, 5 mg, Vz/f
property_measured: Vd/F (L)
# value in L; strip the unit string

Entry under test: Nc1cccc2c1C(=O)N(C1CCC(=O)NC1=O)C2=O (stereo not shown) [Actimid] . Its Vd/F was 87.2

---

# protocol_description: Pharmacokinetics of Actimid in relapsed/refractory multiple myeloma patients
# Type: in vivo, human
# test_context: human, in vivo, 2 mg
property_measured: AUC(0-inf) (ng·h/mL)
# value in ng·h/mL; strip the unit string

Entry under test: Nc1cccc2c1C(=O)N(C1CCC(=O)NC1=O)C2=O (stereo not shown) [Actimid] . Its AUC(0-inf) was 279

---

# protocol_description: Pharmacokinetics of Actimid in relapsed/refractory multiple myeloma patients
# Assay type: in vivo, human
# test_context: human, in vivo, 2 mg, Vz/f
property_measured: Vd/F (L)
# value in L; strip the unit string

Entry under test: Nc1cccc2c1C(=O)N(C1CCC(=O)NC1=O)C2=O (stereo not shown) . Its Vd/F was 65.3

---

# protocol_description: Pharmacokinetics of Actimid in relapsed/refractory multiple myeloma patients
# Assay type: in vivo, human
# test_context: human, in vivo, po, tmax
property_measured: Tmax (h)
# value in h; strip the unit string

Entry under test: Nc1cccc2c1C(=O)N(C1CCC(=O)NC1=O)C2=O (stereo not shown) [Actimid] . Its Tmax was 3.6

---

# protocol_description: Pharmacokinetics of Actimid in relapsed/refractory multiple myeloma patients
# Type: in vivo, human
# test_context: human, in vivo, 5 mg
# Description: 4-(Amino)-2-(2,6-dioxo(3-piperidyl))-isoindoline-1,3-dione (Actimid™) was administered to patients with relapsed/refractory multiple myeloma. The study was conducted in compliance with Good Clinical Practices. Patients were at least 18 years old, had been diagnosed with multiple myeloma (with paraprotein in serum and/or urine), and were considered refractory to treatment after at least two cycles of treatment, or have relapsed after two cycles of treatment. […]
property_measured: AUC(0-inf) (ng·h/mL)
# value in ng·h/mL; strip the unit string

Entry under test: Nc1cccc2c1C(=O)N(C1CCC(=O)NC1=O)C2=O (stereo not shown) . Its AUC(0-inf) was 593

---

# protocol_description: Pharmacokinetics of Actimid in relapsed/refractory multiple myeloma patients
# Format: in vivo, human
# test_context: human, in vivo, 1 mg, t½
property_measured: half-life (h)
# value in h; strip the unit string

Entry under test: Nc1cccc2c1C(=O)N(C1CCC(=O)NC1=O)C2=O (stereo not shown) [Actimid] . Its half-life was 7.3
